# measurement protocol: Ratio of inhibitory activity of compound against HMG-CoA reductase to that of compactin
Here, each record is paired with measured Relative potency data.
Returns: the value as a bare number; no unit string appended.

*Q* Entry Cc1ccc(C2CC3C=CC2C3)n1CC[C@@H]1C[C@@H](O)CC(=O)O1 (stereo not given in full) has what Relative potency?
*A* 1.1

*Q* Entry `COc1cccc(-c2ccc(C)n2CC[C@@H]2C[C@@H](O)CC(=O)O2)c1` has what Relative potency?
*A* 0.8

* * *

# measurement protocol: Ratio of inhibitory activity of compound against HMG-CoA reductase to that of compactin
metric name: Relative potency
Returns: the value as a bare number; no unit string appended.

*Q* Entry `Cc1ccc(C(c2ccccc2)c2ccccc2)n1CC[C@@H]1C[C@@H](O)CC(=O)O1` has what Relative potency?
*A* 0.1
